- TEST TARGET: PLA2 (derived from hog pancreas) (Sus scrofa, UniProt P00592)
- Sequence (P00592 23-146): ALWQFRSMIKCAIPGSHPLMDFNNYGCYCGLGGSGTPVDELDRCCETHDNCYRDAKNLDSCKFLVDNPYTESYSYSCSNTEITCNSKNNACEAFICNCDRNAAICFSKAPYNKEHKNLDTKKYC
The following compounds are listed with their measured pIC50 values.
// returns pIC50 (minus log10 of molar concentration), number only

See these solved cases before continuing.
[[record]]
compound = "CCOC(=O)CN(C(=O)c1ccc(C(=O)Oc2ccc(/C=C/C(=N)N)cc2)cc1)c1ccccc1 [Example 2(d)]"
measured_result = 5.06

[[record]]
compound = "CCOC(=O)CC[C@H](NC(=O)C(=Cc1ccc(C(=O)Oc2ccc(C(=N)N)cc2)cc1)C(=O)OCC)C(=O)OCC [Example 2(r)]"
measured_result = 4.34

[[record]]
compound = "C=CCN(CC(=O)OCC)C(=O)c1ccc(/C(C)=C/C(=O)Oc2ccc(C(=N)N)cc2)cc1 [Example 2(q)]"
measured_result = 4.47


Exercise: Query the reported pIC50 for PLA2 (derived from hog pancreas) (Sus scrofa, UniProt P00592); item: CCOP(=O)(CCCc1ccccc1)Cc1ccc(C(=O)Oc2ccc(C(=N)N)cc2)cc1 (stereo not drawn) [Compound 4]
Key: 4.39

Exercise: Query the reported pIC50 for PLA2 (derived from hog pancreas) (Sus scrofa, UniProt P00592); item: CCOC(=O)CC(NC(=O)/C(C)=C/c1ccc(C(=O)Oc2ccc(C(=N)N)cc2)cc1)(C(=O)OCC)C(=O)OCC [Example 2(k)]
Key: 4.70

---

The following compounds are listed with their measured IC50 values.
- TEST TARGET: trypsin (derived from bovine pancreas) (Bos taurus, UniProt P00760)
- Construct: a solution of 80 mU/ml trypsin (derived from bovine pancreas) (50 μl); from tissue; host or cells: bovine pancreas
- Sequence (P00760 24-246): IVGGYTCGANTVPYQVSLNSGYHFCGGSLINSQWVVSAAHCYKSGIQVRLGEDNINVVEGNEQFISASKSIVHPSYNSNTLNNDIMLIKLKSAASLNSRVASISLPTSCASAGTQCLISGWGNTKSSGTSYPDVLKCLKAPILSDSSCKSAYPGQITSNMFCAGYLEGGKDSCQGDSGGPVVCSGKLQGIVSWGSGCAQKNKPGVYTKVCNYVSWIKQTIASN
- METHOD: Inhibitory activity on trypsin
- Type: biochemical
- TEST SETTINGS: bovine pancreas trypsin, BAPNA substrate, 30° C., pH 8.0; read-out: inhibitory activity on trypsin IC50
Give just the number in nM; leave the unit off.

See these solved cases before continuing.
[[record]]
structure_as_smiles = "N=C(N)c1ccc(OC(=O)c2ccc(Cn3ccnc3-c3ccccc3)cc2)cc1"
parameter = "IC50"
measured_result = 150

[[record]]
structure_as_smiles = "CCOC(=O)CC[C@H](NC(=O)COc1ccc(C(=O)Oc2ccc(C(=N)N)cc2)cc1)C(=O)OCC"
parameter = "IC50"
measured_result = 120

[[record]]
structure_as_smiles = "CCOC(=O)CC[C@H](NC(=O)c1ccc(/C(C)=C/C(=O)Oc2ccc(C(=N)N)cc2)cc1)C(=O)OCC"
parameter = "IC50"
measured_result = 130

[[record]]
structure_as_smiles = "C=CCN(CC(=O)OCC)C(=O)c1ccc(/C(C)=C/C(=O)Oc2ccc(C(=N)N)cc2)cc1"
parameter = "IC50"
measured_result = 160

[[record]]
structure_as_smiles = "C=CCN(CC(=O)OCC)C(=O)c1ccc(/C=C(\\C)C(=O)Oc2ccc(C(=N)N)cc2)cc1"
parameter = "IC50"
measured_result = 120


Exercise: Which measured IC50 value corresponds to CCOC(=O)CC[C@H](NC(=O)/C=C/C=C/c1ccc(C(=O)Oc2ccc(C(=N)N)cc2)cc1)C(=O)OCC ?
Key: 170
